molecular target: panel of 203 kinases (Homo sapiens); construct: purchased DiscoverX (KINOMEscan); assay: KINOMEscan competitive binding, whole panel; conditions: 10 µM, n=1; kinase p38-alpha; read-out: Percent inhibition p38-alpha
Sequence (Q16539 whole entry): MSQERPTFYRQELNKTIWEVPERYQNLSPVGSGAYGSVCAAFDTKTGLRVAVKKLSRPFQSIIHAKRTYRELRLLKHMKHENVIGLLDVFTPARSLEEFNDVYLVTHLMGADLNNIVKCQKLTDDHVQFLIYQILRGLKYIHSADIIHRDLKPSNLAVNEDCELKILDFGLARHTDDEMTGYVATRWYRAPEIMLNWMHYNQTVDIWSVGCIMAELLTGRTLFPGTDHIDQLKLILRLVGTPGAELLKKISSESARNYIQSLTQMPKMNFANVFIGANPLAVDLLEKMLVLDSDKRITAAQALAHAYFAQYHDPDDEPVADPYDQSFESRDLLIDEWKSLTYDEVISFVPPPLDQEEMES
Listed below: inhibition at 10 µM values for each entry.

Worked examples follow.
Cc1ccc(O)cc1Nc1ccnc(Nc2cccc(C(N)=O)c2)n1 [Compound 3]: 77.8%
Clc1ccc(Nc2ncc(-c3ccccc3)s2)cc1 [Compound 10]: 0%
COc1ccc(Nc2nccc(-c3cnn4ncccc34)n2)cc1 [Compound 2]: 0%
C[C@@H](Oc1cc(-c2cnc3ccccn23)sc1C(N)=O)c1ccccc1Cl [Compound 8]: 0%
Nc1ncc2c(-c3ccncc3)c[nH]c2n1 [Compound 11]: 0%
CN1CCN(c2ccc(Nc3nccc(-c4cnn5ncccc45)n3)cc2C#N)CC1 [Compound 1]: 0%

Would you mind telling me what inhibition at 10 µM value was observed for c1ccc(COc2cccc(-c3ccnc4[nH]ccc34)c2)cc1 [Compound 9] ?
0%

Would you mind doing COc1cc(Nc2nccc(-c3sc(N)nc3-c3cccc(NC(=O)c4c(F)cccc4F)c3)n2)cc(OC)c1OC [Compound 7] as well?
98.5%

Would you mind doing Fc1cccc(COc2ccc(Nc3ncnc4c3CN(CCN3CCOCC3)CC4)cc2Cl)c1 [Compound 6] as well?
0%

Would you mind doing Cc1ccc(O)cc1N(C)c1ccnc(Nc2cccc(S(N)(=O)=O)c2)n1 [Compound 4] as well?
99.1%
